- Test system: MCF7 breast
- experiment description: NCI tumour cell line growth inhibition, 48 h
Entries annotated with measured TGI

Some solved entries appear below for comparison.
{"compound": "Cc1ccc2[nH]c3c(c(=O)n(C)c(=O)n3C)c2c1", "TGI": "> 100 µM"}
{"compound": "COC(=O)[C@@H]1C[C@@H](O)CN1C(=O)c1ccc([N+](=O)[O-])cc1[N+](=O)[O-]", "TGI": "> 100 µM"}

API: the following record is the query input.
Problem: Check the records and state TGI for Cc1cc(C)c(NS(=O)c2cccc(C(F)(F)F)c2)c(C)c1 (stereo not drawn)
Result: > 100 µM

---

- System: MALME-3M melanoma
- experiment description: NCI tumour cell line growth inhibition, 48 h
experimental readout: TGI (µM)
Write down the numeric answer in µM and omit the unit.

Problem: Tell me TGI of COc1cc(C(=O)/C=C/c2cc(-c3ccc4c(c3)OCO4)n[nH]2)cc(OC)c1OC when tested on MALME-3M melanoma.
Result: 4.69

Problem: Give measured TGI for CN(C)c1ccc(C=Nc2ccc(-c3nc4ccccc4s3)cc2)cc1 (MALME-3M melanoma).
Result: 95.7

Problem: Output reported TGI of the compound Cc1ccc(C[As+](c2ccccc2)(c2ccccc2)c2ccccc2)cc1 on MALME-3M melanoma.
Result: 11.6

---

The molecules listed here are annotated with their TGI.
- System: CCRF-CEM leukemia
- experiment description: NCI tumour cell line growth inhibition, 48 h

{"test smiles": "Clc1cccc(-c2nc3cccc4c3n2Cc2ncccc2-4)c1", "tested system": "CCRF-CEM leukemia", "result": "> 100 µM"}
{"test smiles": "Cc1ccc(Nc2cccc3c2C(=O)c2cccc(Nc4ccc(C)cc4S(=O)(=O)O)c2C3=O)c(S(=O)(=O)O)c1", "tested system": "CCRF-CEM leukemia", "result": "> 100 µM"}

Next item in the queue.
Problem: Entry C[C@]12CC[C@H](O[C@@H]3O[C@H](CO[C@@H]4O[C@H](CO)[C@@H](O)[C@H](O)[C@H]4O)[C@@H](O)[C@H](O)[C@H]3O)C[C@@H]1CC[C@@H]1[C@@H]2CC[C@]2(C)[C@@H](C3=CC(=O)OC3)CC[C@]12O needs its TGI filled in; supply it.
Result: > 100 µM

---

- Tested on: CCRF-CEM leukemia
- experiment description: NCI tumour cell line growth inhibition, 48 h
Where a SMILES comes first, the peptide text is derived from it. [ ]: non-standard residue; d: D form. The star is where a group is joined. NMeF = CN[CH](Cc1ccccc1)C(=O)O; NMeV = CN[CH](C(=O)O)C(C)C; Boc = CC(C)(C)OC(=O)*; OBn = c1ccc(CO*)cc1
experimental readout: TGI

{"compound": "Cc1ccc(Sc2ccccc2C23OC(C)(C4C(=O)N(c5ccccc5)C(=O)C42)N(C)C3=O)cc1 (centres undefined)", "experimental readout": "TGI", "result": "> 100 µM"}
{"compound": "Cc1ccc(S(=O)(=O)OCOS(=O)(=O)c2ccc(C)cc2)cc1", "experimental readout": "TGI", "result": "> 100 µM"}
{"compound": "CC(C)C(NC(=O)OC(C)(C)C)C(=O)N(C)C(Cc1ccccc1)C(=O)N(C)C(C(=O)OCc1ccccc1)C(C)C (stereo not drawn) (Boc-Val-[NMeF]-[NMeV]-OBn; configuration not given here)", "experimental readout": "TGI", "result": "> 100 µM"}
{"compound": "O=C1c2ccccc2C(=O)N1CCCOCc1c[nH]c(=O)[nH]c1=O", "experimental readout": "TGI", "result": "> 100 µM"}
{"compound": "COc1cc(C(=O)/C=C/c2cc(-c3ccc4c(c3)OCO4)n[nH]2)cc(OC)c1OC", "experimental readout": "TGI", "result": "5.74 µM"}
{"compound": "Nc1cccc2c1-c1c(cccc1[N+](=O)[O-])C2=O", "experimental readout": "TGI", "result": "> 100 µM"}
{"compound": "Clc1sc(Cl)c2c1[C@H](Cl)C[C@@H]2Cl", "experimental readout": "TGI", "result": "> 100 µM"}
{"compound": "CC1(C)C(N2CCOCC2)CS1(=O)=O (centres undefined)", "experimental readout": "TGI", "result": "> 10 µM"}
{"compound": "CC1(C)Cc2c(sc3[nH]c(=S)[nH]c(=S)c23)CS1", "experimental readout": "TGI", "result": "> 100 µM"}
{"compound": "COc1ccc(Oc2nc3cc(N)cc(N)c3nc2-c2ccccc2)cc1", "experimental readout": "TGI", "result": "12.6 µM"}

Now for another entry.
Problem: Using the record for CCC12C=CCN(CCc3c([nH]c4ccccc34)/C=C\1)C2 (centres undefined) , state its measured TGI.
Result: > 100 µM

---

- Tested on: RXF-631 renal
- experiment description: NCI tumour cell line growth inhibition, 48 h
Let's look at some compounds and their measured TGI.

Answered cases to consult:
{"compound": "Cc1cccc(C)c1NC(=O)CCC(=O)NC(N)=NC#N", "TGI": "> 100 µM"}
{"compound": "CC(=O)OCC1OC(n2cccnc2=O)C(OC(C)=O)C1OC(C)=O (stereo not given)", "TGI": "> 100 µM"}
{"compound": "Cc1ccc(Nc2cccc3c2C(=O)c2cccc(Nc4ccc(C)cc4S(=O)(=O)O)c2C3=O)c(S(=O)(=O)O)c1", "TGI": "> 100 µM"}
{"compound": "Cn1[nH]cc2ccc3nc4ccccc4c(=O)c3c21", "TGI": "> 66.1 µM"}

Kindly review the next compound as well.
Problem: Consider the compound O=C1c2ccccc2C(=O)N1CCCOCc1c[nH]c(=O)[nH]c1=O . State its measured TGI.
Result: > 100 µM

---

- Test system: SK-MEL-2 melanoma
- experiment description: NCI tumour cell line growth inhibition, 48 h; in the data active = GI50 below about 0.43 µM; inactive = the rest
Return exactly one item of active, inactive

Problem: Assay outcome for Cn1c(CCCC(=O)O)nc2cc(N(CCCl)CCCl)ccc21 : what was it?
Result: inactive

Problem: How was c1ccc(-c2[nH]ncc2-c2ccnc(-c3ccc(OCCN4CCOCC4)cc3)c2)nc1 classified in this test?
Result: inactive

Problem: Tell me the recorded outcome of this test for Cc1nc2sc(C(=O)Nc3cccc(Br)c3C)c(N)c2cc1C(O)c1ccccc1 (stereo not drawn) .
Result: active

Problem: Assay result, entry CC[C@@H](C)/C=C(C)/C=C/C(=O)c1c(O)c(-c2ccc(OC(=O)[C@@]34CC[C@@](C)(C(=O)O3)C4(C)C)cc2)cn(O)c1=O — outcome?
Result: inactive

Problem: # lookup: test call for C[C@@H](Nc1cc(F)cc(F)c1)c1cc(C(=O)N(C)C)cc2c(=O)cc(N3CCOCC3)oc12
Result: inactive

---

- Test system: T-47D breast
- experiment description: NCI tumour cell line growth inhibition, 48 h; in the data active = GI50 below about 0.43 µM; inactive = the rest
A correct response names exactly one class from class 1 (active), class 0 (inactive)

{"molecule": "Brc1ccccc2cc(-c3ccccc3)nc1-2", "label value": "class 0"}

We now examine a further molecule.
Problem: Record request — test call for NC(=O)c1c(NC(=O)c2cccs2)sc2c1CCC(=O)C2
Result: class 0

---

- Test system: UACC-257 melanoma
- experiment description: NCI tumour cell line growth inhibition, 48 h
experimental readout: TGI

Known TGI results, listed for orientation:
{"compound": "CCCCN=NNc1cn(C2OC(CO)C(O)C2O)c(=O)[nH]c1=O (stereo not drawn)", "result": "> 100 µM"}
{"compound": "Cc1ccc(S(=O)(=O)OCOS(=O)(=O)c2ccc(C)cc2)cc1", "result": "> 100 µM"}

Problem: Give TGI for this entry on UACC-257 melanoma: CCN(CC)C1Oc2cc3c(cc2C(c2cc(OC)c(O)c(OC)c2)C1C)OCO3 (stereo not drawn)
Result: > 100 µM

---

- System: HCT-116 colon
- experiment description: NCI tumour cell line growth inhibition, 48 h; in the data active means GI50 below about 0.43 µM; inactive means the rest
Can you answer with just one of these options? active, inactive

# example entries with known answers
{"compound": "Nc1ccccc1C#C/C=C\\C#Cc1ccccc1C#CCO", "tested system": "HCT-116 colon", "label value": "inactive"}
{"compound": "CCCCC(=O)N(c1ccc(Nc2c3ccccc3nc3cc([N+](=O)[O-])ccc23)cc1)S(C)(=O)=O", "tested system": "HCT-116 colon", "label value": "inactive"}

Problem: Hey, what did the test say about COc1ccc2c(c1)C(=Nc1ccc(F)c(Cl)c1)c1c-2c(Nc2ccc(F)c(Cl)c2)nc2ccccc12 ?
Result: inactive

Problem: // outcome(item) with item = CCc1nc(C)cn1C(=O)OCc1nc2nc(Cl)nc(N3CCOCC3)c2[nH]1
Result: active

Problem: Tell me the recorded outcome of this test for COc1ccc(Oc2nc3cc(N)cc(N)c3nc2-c2ccccc2)cc1 .
Result: inactive

Problem: How was COC(=O)C1C(C(=O)O)C2(c3ccccc3)C(=O)C1(c1ccccc1)C(c1ccccc1)=C2c1ccccc1 (centres undefined) classified in this test?
Result: inactive

Problem: How did this test come out for CC1=CC(=O)N(c2cccc3c(N4C(=O)C=C(C)C4=O)cccc23)C1=O ?
Result: inactive

Problem: I would be grateful if you could indicate the recorded call for Cc1sc(C(=O)c2cncnc2N[C@@H]2C[C@H](COS(N)(=O)=O)[C@@H](O)C2)cc1[C@@H]1NCCc2ccc(Cl)cc21 .
Result: inactive

Problem: Record request — test call for Cc1nc2sc(C(=O)Nc3cccc(Br)c3C)c(N)c2cc1C(O)c1ccccc1 (centres undefined)
Result: active
